# STUDY SYSTEM: Torsin-1A-interacting protein 1 (Homo sapiens) (UniProt Q5JTV8)
# Sequence (Q5JTV8 whole entry, looked up): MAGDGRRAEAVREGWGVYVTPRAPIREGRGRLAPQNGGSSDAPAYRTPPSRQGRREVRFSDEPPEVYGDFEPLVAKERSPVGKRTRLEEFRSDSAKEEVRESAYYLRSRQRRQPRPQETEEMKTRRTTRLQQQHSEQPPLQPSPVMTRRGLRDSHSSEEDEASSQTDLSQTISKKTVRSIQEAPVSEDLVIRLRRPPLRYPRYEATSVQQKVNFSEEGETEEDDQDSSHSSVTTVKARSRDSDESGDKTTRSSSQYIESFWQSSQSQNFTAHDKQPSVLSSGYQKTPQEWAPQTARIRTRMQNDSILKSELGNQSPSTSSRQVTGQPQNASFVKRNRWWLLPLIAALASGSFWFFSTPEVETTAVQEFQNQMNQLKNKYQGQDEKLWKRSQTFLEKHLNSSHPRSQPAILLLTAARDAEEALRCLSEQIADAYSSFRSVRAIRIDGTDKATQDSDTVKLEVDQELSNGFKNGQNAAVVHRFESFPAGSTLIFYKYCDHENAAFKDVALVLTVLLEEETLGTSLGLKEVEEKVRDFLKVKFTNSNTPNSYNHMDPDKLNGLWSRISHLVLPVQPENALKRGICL
# EXPERIMENTAL DETAILS: LAP1 binders from COS7 cell lysate, primary screen, small-molecule microarray, 635/667 nm fluorescence (AID 1116)
# TEST PARAMETERS: COS7-hLAP1 lysate binding, 635 nm fluorescence, higher = more signal
If the reported composite z-score equals or exceeds 0.2, assign fulfilled. If not, assign not fulfilled.

Completed entries (count: 4):
CCOC(=O)C[C@H]1[C@H](OC(=O)c2ccc(-c3ccccc3)cc2)[C@@H](NC(=O)c2ccc3ccccc3c2)c2cc(OCCCO)ccc2N1C(=O)c1ccc2ccccc2n1 ... fulfilled
CCOC(=O)[C@@H]1[C@@H]2C(=O)N(CC)C(=O)[C@@H]2C[C@@H]1Sc1ccccc1 ... fulfilled
CCOC(=O)C[C@H]1[C@H](OC(=O)c2ccccc2-c2ccccc2)[C@@H](NC(=O)CC(C)C)c2cc(OCCCO)ccc2N1C(=O)c1ccc2ccccc2n1 ... not fulfilled
COc1ccc([Si](C)(C)[C@H]2[C@H](CCO)O[C@@]3(C(=O)N(Cc4cccc(N5CCCCC5=O)c4)c4ccccc43)[C@@H]2C)cc1 ... fulfilled

Q. Is reported composite z-score greater than or equal to 0.2 here: O=C1OC[C@@H](c2ccccc2)N2CC(/C=C/c3ccccc3)=CC12 (stereo partly drawn)
A. not fulfilled

Q. Decide: is the reported value of composite z-score for C=C(C(=O)CC[C@H](OC(C)=O)c1cccc(OCCO)c1)C(C)C equal to or greater than 0.2?
A. not fulfilled

Q. Decide: is the reported value of composite z-score for Cc1c(NC(=O)/C(C#N)=C/C=C/c2ccccc2[N+](=O)[O-])c(=O)n(-c2ccccc2)n1C equal to or greater than 0.2?
A. fulfilled

Q. Could you please find out whether COCCOC(=O)N1C(=O)[C@@]2(c3ccccc31)[C@H](C(=O)N1CCN(c3ncccn3)CC1)[C@H]1C(=O)O[C@H](c3ccccc3)[C@H](c3ccccc3)N1[C@@H]2c1ccc(OCCO)cc1 has composite z-score that meets 0.2 or exceeds it?
A. fulfilled
